# Protocol Description: AUClast in human at 600 mg/kg, po administered as single dose and measured upto 144 hrs
# Type: ADME, organism-based
# Protocol Conditions: in vivo

{"columns": ["Molecule Smiles", "AUC(0-t) at 144 h [µg·h/mL]"],
 "data": [
  ["Cc1ccc(NC(=O)C[C@H](CCC(=O)O)c2noc([C@H]3C[C@@H](CC(C)(C)C)C3)c2C2CC2)c(Cl)c1", 140]
]}

* * *

# Experimental System: Cytochrome P450 3A5 (Homo sapiens, UniProt P20815)
# Sequence (P20815 whole entry): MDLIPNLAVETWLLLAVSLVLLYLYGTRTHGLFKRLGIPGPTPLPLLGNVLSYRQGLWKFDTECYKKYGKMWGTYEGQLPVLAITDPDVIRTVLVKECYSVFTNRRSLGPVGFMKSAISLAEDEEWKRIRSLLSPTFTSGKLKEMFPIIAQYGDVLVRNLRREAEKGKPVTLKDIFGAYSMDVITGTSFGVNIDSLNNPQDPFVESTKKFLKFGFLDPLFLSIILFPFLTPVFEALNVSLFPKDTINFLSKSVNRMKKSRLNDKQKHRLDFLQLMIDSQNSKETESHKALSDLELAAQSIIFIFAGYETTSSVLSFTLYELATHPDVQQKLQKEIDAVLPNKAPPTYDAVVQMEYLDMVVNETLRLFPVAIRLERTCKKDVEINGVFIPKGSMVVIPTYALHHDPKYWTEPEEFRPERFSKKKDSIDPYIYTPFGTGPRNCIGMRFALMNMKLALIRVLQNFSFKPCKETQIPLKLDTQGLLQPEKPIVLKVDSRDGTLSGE
# Protocol Description: Inhibition of CYP3A5 in human liver microsomes using midazolam as substrate
# Format: ADME, Microsome
pIC50: −log10 of the molar value.
Assay Metric: pIC50

{"columns": ["Molecule Smiles", "Experimental Result"],
 "data": [
  ["Cc1ccc(NC(=O)C[C@H](CCC(=O)O)c2noc([C@H]3C[C@@H](CC(C)(C)C)C3)c2C2CC2)c(Cl)c1", "< 5.00"]
]}

* * *

# Protocol Description: Tmax in human at 400 […], po administered as single dose and measured upto 144 hrs
# Format: ADME, organism-based
# Protocol Conditions: in vivo
Assay Metric: Tmax (h)

{"columns": ["Molecule Smiles", "Experimental Result"],
 "data": [
  ["Cc1ccc(NC(=O)C[C@H](CCC(=O)O)c2noc([C@H]3C[C@@H](CC(C)(C)C)C3)c2C2CC2)c(Cl)c1", 3]
]}

* * *

# Experimental System: Cytochrome P450 2C9 (Homo sapiens)
# Sequence (P11712 whole entry): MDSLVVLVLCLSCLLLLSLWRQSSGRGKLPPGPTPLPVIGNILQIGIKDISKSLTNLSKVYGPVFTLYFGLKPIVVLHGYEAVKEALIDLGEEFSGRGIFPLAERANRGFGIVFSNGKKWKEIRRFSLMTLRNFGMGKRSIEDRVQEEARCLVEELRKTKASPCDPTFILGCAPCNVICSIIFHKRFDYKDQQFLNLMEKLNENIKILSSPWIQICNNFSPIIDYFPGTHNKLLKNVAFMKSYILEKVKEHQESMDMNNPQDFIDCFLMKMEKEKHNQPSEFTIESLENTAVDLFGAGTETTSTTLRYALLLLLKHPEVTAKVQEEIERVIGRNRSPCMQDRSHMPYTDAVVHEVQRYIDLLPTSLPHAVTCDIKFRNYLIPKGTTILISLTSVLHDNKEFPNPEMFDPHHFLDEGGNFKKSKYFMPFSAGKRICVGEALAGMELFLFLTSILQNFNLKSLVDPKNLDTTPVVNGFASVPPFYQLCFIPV
pIC50: −log10 of the molar value.

{"columns": ["Molecule Smiles", "pIC50"],
 "data": [
  ["Cc1ccc(NC(=O)C[C@H](CCC(=O)O)c2noc([C@H]3C[C@@H](CC(C)(C)C)C3)c2C2CC2)c(Cl)c1", "< 5.00"]
]}

* * *

# Vd annotations
# Protocol Description: Volume of distribution at steady state in CD(SD) rat at 1 mg/kg, iv administered as single dose and measured after 24 hrs
# Assay type: ADME, organism-based
# Protocol Conditions: in vivo, read-out: Vdss
Assay Metric: Vd (L/kg)

{"columns": ["Molecule Smiles", "Assay Metric", "Units Text", "Experimental Result"],
 "data": [
  ["Cc1ccc(NC(=O)C[C@H](CCC(=O)O)n2nnc([C@H]3C[C@@H](CC(C)(C)C)C3)c2C2CC2)c(Cl)c1", "Vd", "L/kg", 1.4],
  ["Cc1ccc(NC(=O)C[C@H](CCC(=O)O)c2noc([C@H]3C[C@@H](CC(C)(C)C)C3)c2C2CC2)c(Cl)c1", "Vd", "L/kg", 0.34],
  ["Cc1ccc(NC(=O)C[C@H](CCC(=O)O)c2nnn([C@H]3C[C@@H](CC(C)(C)C)C3)c2C2CC2)c(Cl)c1", "Vd", "L/kg", 0.67]
]}

* * *

# Experimental System: UniProtKB P10635
# Sequence (P10635 whole entry): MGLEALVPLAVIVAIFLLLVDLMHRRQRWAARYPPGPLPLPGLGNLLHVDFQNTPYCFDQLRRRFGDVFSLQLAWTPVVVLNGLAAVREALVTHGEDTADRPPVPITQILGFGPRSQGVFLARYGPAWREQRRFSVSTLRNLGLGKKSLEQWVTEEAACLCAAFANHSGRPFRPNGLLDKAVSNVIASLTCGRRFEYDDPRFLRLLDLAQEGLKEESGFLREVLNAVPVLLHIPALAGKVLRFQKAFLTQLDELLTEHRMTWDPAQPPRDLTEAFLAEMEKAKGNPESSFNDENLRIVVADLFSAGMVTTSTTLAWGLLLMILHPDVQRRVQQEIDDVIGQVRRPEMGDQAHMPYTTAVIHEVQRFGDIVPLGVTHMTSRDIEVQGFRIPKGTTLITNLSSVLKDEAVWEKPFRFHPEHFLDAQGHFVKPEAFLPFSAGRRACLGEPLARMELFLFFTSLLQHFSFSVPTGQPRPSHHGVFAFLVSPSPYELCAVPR

{"columns": ["Molecule Smiles", "Experimental System", "IC50"],
 "data": [
  ["Cc1ccc(NC(=O)C[C@H](CCC(=O)O)c2noc([C@H]3C[C@@H](CC(C)(C)C)C3)c2C2CC2)c(Cl)c1", "UniProtKB P10635", "> 10 µM"]
]}

* * *

# Protocol Description: AUCinfinity in CD(SD) rat at 10 mg/kg, po administered as single dose and measured after 24 hrs
# Type: ADME, organism-based
# Protocol Conditions: in vivo
Assay Metric: AUC(0-inf) (µM·h)

{"columns": ["Molecule Smiles", "Assay Metric", "Units Text", "Experimental Result"],
 "data": [
  ["Cc1ccc(NC(=O)C[C@H](CCC(=O)O)c2noc([C@H]3C[C@@H](CC(C)(C)C)C3)c2C2CC2)c(Cl)c1", "AUC(0-inf)", "µM·h", 191]
]}
